tested on: RAW264.7; assay: Cytotoxicity against mouse RAW264.7 cells assessed as reduction in cell viability at 30 uM after 18 hrs by MTT assay; type: cell-based; conditions: raw264.7, 18 h
MEASUREMENT TYPE: Activity

Examples with answers:
MOLECULE	REPORTED
COc1ccc(CCC(O)/C=C\CCc2ccc(O)cc2)cc1Br (configuration not stated)	Toxic
COc1ccc2cc1Oc1ccc(cc1)C[C@H](N)C(=O)NCCC2	Non-Toxic
COc1ccc2cc1Oc1ccc(cc1)CCc1cn(nn1)CC2	Non-Toxic
O=C1N[C@H]2Cc3ccc(cc3)Oc3cc(ccc3O)CCCN1C2=O	Non-Toxic
O=C1CCc2ccc(cc2)Oc2cc(ccc2O)CCCN1	Non-Toxic
COc1ccc(CCCNC(=O)[C@@H](N)Cc2ccc(O)cc2)cc1Br	Non-Toxic
COc1ccc2cc1Oc1ccc(cc1)CCC(=O)NCCC2	Non-Toxic
COc1ccc(CCn2cc(CCc3ccc(O)cc3)nn2)cc1Br	Non-Toxic
COc1ccc2cc1Oc1ccc(cc1)CC/C=C\C(O)CC2 (configuration not stated)	Non-Toxic
N[C@H]1Cc2ccc(cc2)Oc2cc(ccc2O)CCCNC1=O	Non-Toxic

Given the molecule Oc1ccc2cc1Oc1ccc(cc1)CC/C=C\C(O)CC2 (configuration not stated) , what is its reported Activity?
Non-Toxic

Value lookup for Activity; key = COc1ccc(CCCNC(=O)CCc2ccc(O)cc2)cc1Br
Non-Toxic
